Molecular target: YFP-hGluN1-1a/hGluN2A (Homo sapiens, UniProt Q05586+Q12879)
Sequence (Q12879 23-1464, other chains not shown): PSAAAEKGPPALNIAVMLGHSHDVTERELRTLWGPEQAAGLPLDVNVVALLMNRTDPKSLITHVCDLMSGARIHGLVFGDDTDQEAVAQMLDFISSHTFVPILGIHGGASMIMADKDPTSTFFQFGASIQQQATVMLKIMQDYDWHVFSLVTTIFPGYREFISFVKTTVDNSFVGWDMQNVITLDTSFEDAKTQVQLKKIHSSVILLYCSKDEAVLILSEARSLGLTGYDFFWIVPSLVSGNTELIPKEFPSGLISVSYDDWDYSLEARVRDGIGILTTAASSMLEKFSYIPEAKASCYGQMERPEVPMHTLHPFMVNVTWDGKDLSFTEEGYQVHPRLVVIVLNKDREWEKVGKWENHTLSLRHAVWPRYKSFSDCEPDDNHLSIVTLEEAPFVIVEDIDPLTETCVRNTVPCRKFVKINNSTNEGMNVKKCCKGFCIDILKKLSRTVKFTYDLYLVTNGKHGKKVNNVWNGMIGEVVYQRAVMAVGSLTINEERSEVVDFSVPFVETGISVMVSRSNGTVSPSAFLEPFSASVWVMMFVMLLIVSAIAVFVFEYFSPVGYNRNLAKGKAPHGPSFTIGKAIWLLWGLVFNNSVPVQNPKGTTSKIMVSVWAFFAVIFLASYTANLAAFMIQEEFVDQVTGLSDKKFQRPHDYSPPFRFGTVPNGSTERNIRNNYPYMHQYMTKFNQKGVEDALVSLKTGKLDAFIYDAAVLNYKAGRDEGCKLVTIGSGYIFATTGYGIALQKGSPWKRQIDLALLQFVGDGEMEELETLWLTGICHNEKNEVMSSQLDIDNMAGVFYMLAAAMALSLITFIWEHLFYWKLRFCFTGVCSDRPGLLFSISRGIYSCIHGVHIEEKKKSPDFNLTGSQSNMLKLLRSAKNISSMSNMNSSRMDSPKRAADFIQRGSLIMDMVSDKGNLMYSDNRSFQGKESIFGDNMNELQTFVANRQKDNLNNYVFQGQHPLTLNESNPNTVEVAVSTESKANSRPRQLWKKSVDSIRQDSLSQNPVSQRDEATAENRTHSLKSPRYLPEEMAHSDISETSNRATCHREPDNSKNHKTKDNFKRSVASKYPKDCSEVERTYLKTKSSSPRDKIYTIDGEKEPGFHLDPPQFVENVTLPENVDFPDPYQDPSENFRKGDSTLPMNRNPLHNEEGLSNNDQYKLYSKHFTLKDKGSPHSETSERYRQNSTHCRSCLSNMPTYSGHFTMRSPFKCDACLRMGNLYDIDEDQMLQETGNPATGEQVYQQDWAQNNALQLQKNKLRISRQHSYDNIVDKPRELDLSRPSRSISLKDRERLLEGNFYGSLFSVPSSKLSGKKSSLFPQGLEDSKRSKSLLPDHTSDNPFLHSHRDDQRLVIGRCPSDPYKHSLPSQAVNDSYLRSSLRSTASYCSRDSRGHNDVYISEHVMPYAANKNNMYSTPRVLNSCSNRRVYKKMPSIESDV
Type: cell-based
Conditions: read-out: Glycine EC50
pEC50: −log10 of the molar value.
outcome.measure: pEC50

| smiles.str | outcome.measure | numeric.value |
| --- | --- | --- |
| NCC(=O)O | pEC50 | 5.54 |

###

Test system: YFP-GluN1-1a-C744S-C798S/GluN3A
Settings: read-out: Glycine EC50

| smiles.str | target.or.system | EC50, µM |
| --- | --- | --- |
| NCC(=O)O | YFP-GluN1-1a-C744S-C798S/GluN3A | 213 |

Values were extracted from paper PMC13064811.
